molecular target: LSD2 (Homo sapiens, UniProt Q8NB78); experiment: LSD2 A-screen (AlphaScreen) demethylase enzymatic assay; type: biochemical; conditions: 50 μM compound; approximate values; read-out: Potency LSD-2 % Inhibition at 50 μM
Sequence (Q8NB78 whole entry): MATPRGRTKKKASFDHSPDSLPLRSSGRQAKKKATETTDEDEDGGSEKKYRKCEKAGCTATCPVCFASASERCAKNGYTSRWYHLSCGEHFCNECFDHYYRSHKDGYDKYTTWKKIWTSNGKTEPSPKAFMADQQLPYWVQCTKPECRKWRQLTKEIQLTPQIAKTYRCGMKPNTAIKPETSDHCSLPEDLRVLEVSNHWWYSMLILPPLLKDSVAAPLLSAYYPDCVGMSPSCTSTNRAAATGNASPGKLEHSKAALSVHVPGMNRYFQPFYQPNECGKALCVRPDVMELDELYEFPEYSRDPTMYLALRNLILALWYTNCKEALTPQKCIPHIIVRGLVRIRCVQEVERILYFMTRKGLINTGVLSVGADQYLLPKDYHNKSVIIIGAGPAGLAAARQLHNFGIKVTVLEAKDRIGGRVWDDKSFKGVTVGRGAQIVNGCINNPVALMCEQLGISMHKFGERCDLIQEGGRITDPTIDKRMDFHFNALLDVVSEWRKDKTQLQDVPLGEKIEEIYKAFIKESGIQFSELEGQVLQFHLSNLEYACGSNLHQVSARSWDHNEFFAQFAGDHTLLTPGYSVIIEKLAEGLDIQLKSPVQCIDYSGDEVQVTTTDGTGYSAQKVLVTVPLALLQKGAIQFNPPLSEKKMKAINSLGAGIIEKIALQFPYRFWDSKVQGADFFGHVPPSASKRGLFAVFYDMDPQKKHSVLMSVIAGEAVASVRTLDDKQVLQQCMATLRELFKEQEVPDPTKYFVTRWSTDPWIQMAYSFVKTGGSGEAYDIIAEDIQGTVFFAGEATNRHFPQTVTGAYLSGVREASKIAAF
readout.type: inhibition at 50 µM (%)
One number for each entry, in %.

>>> result_value("CCn1cc(C(=O)O)c(=O)c2c(N)c(F)c(NCCCc3ccccc3)cc21 [Compound I-19]")
17

Batch request: inhibition at 50 µM per item, same order as input.
1. CCn1cc(C(=O)O)c(=O)c2c(N)c(F)c(NC3CCCC3)cc21 [Compound I-9]
2. CCn1cc(C(=O)O)c(=O)c2c(N)c(F)c(NC3CCc4ccccc43)cc21 (stereo not drawn) [Compound I-10]
3. CC(C)n1cc(C(=O)O)c(=O)c2c(N)c(F)c(NCCN[C@@H]3C[C@H]3c3ccccc3)cc21 (relative stereo) [Compound I-88]
4. CCn1cc(C(=O)O)c(=O)c2c(N)c(F)c(NC3CC3)cc21 [Compound I-15]
5. CCn1cc(C(=O)O)c(=O)c2c(N)c(F)c(Nc3ccccc3)cc21 [Compound I-16]

3
6
14
2
5
